remaining at 0.5 h overview
method-summary: Metabolic stability in human liver microsome assessed as compound remaining after 30 mins
Type: ADME
condition: liver microsomes, read-out: Stability
parameter-measured: remaining at 0.5 h

# chemical-structure, reported-value
rows = [
    ("C[C@@](O)(c1ccc(C(=O)N(C2CC2)[C@H]2CC[C@@H](CC#N)CC2)cc1)C(F)(F)F", "70%"),
    ("C[C@](O)(c1ccc(C(=O)N(C2CC2)[C@H]2CC[C@@H](CCC#N)CC2)cc1)C(F)(F)F", "64%"),
    ("C[C@](O)(c1ccc(C(=O)N(C2CC2)C2CCN(CC3(C#N)CC3)CC2)cc1)C(F)(F)F", "86%"),
    ("C[C@](O)(c1ccc(C(=O)N(C2CC2)[C@H]2CC[C@H](CCC#N)CC2)cc1)C(F)(F)F", "> 90%"),
]
